B1: MLL5 (parent)
chain: HDDGYMICCDKCSVWQHIDCMGID

# Variants of: B1
# assay details: protein stability index of a GFP-peptide fusion (GPS, HEK-293T) (PSI 1-6); higher = more stable;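 note: lentivirally expressed fusions sorted by FACS into six bins by GFP to DsRed ratio, PSI derived from sequencing read proportions per bin multiplied by bin number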
# measurement setup: c terminus: a fixed tail appended
Label scheme, based on protein stability index: lo (below 2), med (2 to below 3), hi (3 or more)

Hi, small favor: classify W15E by its protein stability index when you get a moment. hi

Hi, small favor: classify I7V by its protein stability index when you get a moment. med

Hi, small favor: classify M21F by its protein stability index when you get a moment. med

Hi, small favor: classify G4Q by its protein stability index when you get a moment. med

Hi, small favor: classify C9A by its protein stability index when you get a moment. med

Hi, small favor: classify C9V by its protein stability index when you get a moment. med

Hi, small favor: classify M21C by its protein stability index when you get a moment. med

Hi, small favor: classify D24V by its protein stability index when you get a moment. med

Hi, small favor: classify D3S by its protein stability index when you get a moment. lo

Hi, small favor: classify K11Y by its protein stability index when you get a moment. lo

Hi, small favor: classify I23D by its protein stability index when you get a moment. med

Hi, small favor: classify D24L by its protein stability index when you get a moment. med

Hi, small favor: classify D3F by its protein stability index when you get a moment. lo

Hi, small favor: classify C8W by its protein stability index when you get a moment. lo

Hi, small favor: classify V14P by its protein stability index when you get a moment. hi

Hi, small favor: classify C12G by its protein stability index when you get a moment. med

Hi, small favor: classify H1D by its protein stability index when you get a moment. med

Hi, small favor: classify D2M by its protein stability index when you get a moment. lo

Hi, small favor: classify G22W by its protein stability index when you get a moment. med

Hi, small favor: classify D24F by its protein stability index when you get a moment. lo

Hi, small favor: classify D2W by its protein stability index when you get a moment. lo

Hi, small favor: classify C20S by its protein stability index when you get a moment. lo

Hi, small favor: classify S13R by its protein stability index when you get a moment. hi

Hi, small favor: classify D19I by its protein stability index when you get a moment. med

Hi, small favor: classify D2S by its protein stability index when you get a moment. med

Hi, small favor: classify V14H by its protein stability index when you get a moment. hi

Hi, small favor: classify G22D by its protein stability index when you get a moment. hi

Hi, small favor: classify M6A by its protein stability index when you get a moment. hi

Hi, small favor: classify M21S by its protein stability index when you get a moment. med

Hi, small favor: classify M6H by its protein stability index when you get a moment. hi

Hi, small favor: classify C8I by its protein stability index when you get a moment. lo

Hi, small favor: classify D3N by its protein stability index when you get a moment. med

Hi, small favor: classify D3G by its protein stability index when you get a moment. med

Hi, small favor: classify H17I by its protein stability index when you get a moment. lo

Hi, small favor: classify D2L by its protein stability index when you get a moment. hi

Hi, small favor: classify D3Y by its protein stability index when you get a moment. lo

Hi, small favor: classify C20A by its protein stability index when you get a moment. med

Hi, small favor: classify H1F by its protein stability index when you get a moment. lo

Hi, small favor: classify I7P by its protein stability index when you get a moment. med

Hi, small favor: classify S13G by its protein stability index when you get a moment. hi

Hi, small favor: classify K11H by its protein stability index when you get a moment. med

Hi, small favor: classify C9F by its protein stability index when you get a moment. med

Hi, small favor: classify I18T by its protein stability index when you get a moment. med

Hi, small favor: classify C20E by its protein stability index when you get a moment. med

Hi, small favor: classify I7F by its protein stability index when you get a moment. med

Hi, small favor: classify C20N by its protein stability index when you get a moment. med

Hi, small favor: classify M21V by its protein stability index when you get a moment. med

Hi, small favor: classify K11V by its protein stability index when you get a moment. lo

Hi, small favor: classify G22M by its protein stability index when you get a moment. med

Hi, small favor: classify G22V by its protein stability index when you get a moment. lo

Hi, small favor: classify D19F by its protein stability index when you get a moment. lo

Hi, small favor: classify Q16K by its protein stability index when you get a moment. med

Hi, small favor: classify G22H by its protein stability index when you get a moment. med

Hi, small favor: classify D2P by its protein stability index when you get a moment. med

Hi, small favor: classify G4M by its protein stability index when you get a moment. lo

Hi, small favor: classify M6I by its protein stability index when you get a moment. med

Hi, small favor: classify C8H by its protein stability index when you get a moment. med

Hi, small favor: classify S13T by its protein stability index when you get a moment. med

Hi, small favor: classify D10F by its protein stability index when you get a moment. med

Hi, small favor: classify D19K by its protein stability index when you get a moment. med

Hi, small favor: classify H1T by its protein stability index when you get a moment. med

Hi, small favor: classify I18Q by its protein stability index when you get a moment. hi

Hi, small favor: classify C8L by its protein stability index when you get a moment. med

Hi, small favor: classify D10A by its protein stability index when you get a moment. lo

Hi, small favor: classify I18Y by its protein stability index when you get a moment. med

Hi, small favor: classify D10P by its protein stability index when you get a moment. med

Hi, small favor: classify D3V by its protein stability index when you get a moment. med

Hi, small favor: classify M21D by its protein stability index when you get a moment. hi

Hi, small favor: classify Y5E by its protein stability index when you get a moment. hi

Hi, small favor: classify D19E by its protein stability index when you get a moment. med

Hi, small favor: classify D19L by its protein stability index when you get a moment. med

Hi, small favor: classify D2A by its protein stability index when you get a moment. lo

Hi, small favor: classify G4F by its protein stability index when you get a moment. lo

Hi, small favor: classify C20V by its protein stability index when you get a moment. lo

Hi, small favor: classify M21H by its protein stability index when you get a moment. med

Hi, small favor: classify C12D by its protein stability index when you get a moment. hi

Hi, small favor: classify C8V by its protein stability index when you get a moment. lo

Hi, small favor: classify M21Y by its protein stability index when you get a moment. med
